Target: recombinant human CK2 (Homo sapiens)
Construct: purchased Upstate
Test: Cell-free CK2 assay
Format: biochemical
Settings: read-out: CK2: % inh 500 nM
Respond with 1 for inhibition at 0.5 µM values of 90% and above, 0 for values below.

// query Is the recorded value of inhibition at 0.5 µM equal to or greater than 90% for this molecule? CCCNC(=O)c1ccc2c(c1)nc(-c1cnn(C)c1)c1ccncc12
// result 0

// query Another molecule to look at: O=C(O)c1ccc2c(c1)nc(-c1cccc(F)c1)c1ccncc12
// result 1

// query Another molecule to look at: CC(=O)Nc1cccc(-c2nc3cc(C(=O)O)ccc3c3cnccc23)c1
// result 1

// query Another molecule to look at: CN(C)C(=O)c1ccc2c(c1)nc(-c1ccccc1)c1ccncc12
// result 0

----------
System: MV-4-11
Experiment: Cell proliferation assay (Alamar Blue), MV-4-11
Type: cell-based
Conditions: Homo sapiens, MV4-11; MV-4-11 cell line
Procedure: A representative cell-proliferation assay protocol using Alamar Blue dye (stored at 4° C., use 20 ul per well) is described hereafter. 96-Well Plate Setup and Compound Treatment • a. Split and trypsinize cells. • b. Count cells using hemocytometer. • c. Plate 4,000-5,000 cells per well in 100 μl of medium and seed into a 96-well plate according to the following plate layout. […] • d. […] Record fluorescence at an excitation wavelength of 544 nm and emission wavelength of 590 nm using a microplate reader. […]
measure: IC50

// query # query: IC50 of entry Cn1cc(-c2nc3cc(C(=O)O)ccc3c3cnc(NC4CC4)nc23)cn1
// result 0.6 µM

// query Another molecule to look at: Cn1cc(-c2nc3cc(C(=O)NC4CC4)ccc3c3cnccc23)cn1
// result 2.7 µM

// query Another molecule to look at: CCCNC(=O)c1ccc2c(c1)nc(-c1ccccc1)c1ccncc12
// result > 10 µM

// query Another molecule to look at: CN(C)C(=O)c1ccc2c(c1)nc(-c1ccccc1)c1ccncc12
// result > 10 µM

// query Another molecule to look at: Nc1cccc(-c2nc3cc(C(=O)O)ccc3c3cnccc23)c1
// result > 10 µM

// query Another molecule to look at: O=C(O)c1ccc2c(c1)nc(-c1ccc(Cl)cc1)c1ccncc12
// result > 10 µM

// query Another molecule to look at: O=C(O)c1ccc2c(c1)nc(-c1cccc(F)c1)c1ccncc12
// result 1.4 µM

// query Another molecule to look at: O=C(O)c1ccc2c(c1)nc(-c1ccccc1F)c1ccncc12
// result > 10 µM

// query Another molecule to look at: CN1CCCN(C(=O)c2ccc3c(c2)nc(-c2ccccc2)c2ccncc23)CC1
// result > 10 µM

// query Another molecule to look at: Cn1cc(-c2nc3cc(C(N)=O)ccc3c3cnccc23)cn1
// result 2.9 µM

// query Another molecule to look at: CN1CCN(C(=O)c2ccc3c(c2)nc(-c2ccccc2)c2ccncc23)CC1
// result > 10 µM

----------
Please provide measured IC50 for the entries that follow.
Tested on: BxPC3
Test: Cell proliferation assay (Alamar Blue), BxPC3
Type: cell-based
Settings: Homo sapiens, BXPC-3; BxPC3 cell line; read-out: Bx-PC3
Express it in µM; write the number only.

// query # query: IC50 of entry O=C(O)c1ccc2c(c1)nc(-c1ccccc1)c1nc(NC3CC3)ncc12
// result 4.5

// query Another compound to look at: O=C(NC1CC1)c1ccc2c(c1)nc(-c1ccccc1)c1nc(NC3CC3)ncc12
// result 1.2

// query Another compound to look at: COC(=O)c1ccc2c(c1)nc(-c1ccccc1)c1nc(S(C)(=O)=O)ncc12
// result 10.6

// query Another compound to look at: Cn1cc(-c2nc3cc(C(=O)O)ccc3c3cnc(NC4CC4)nc23)cn1
// result 13.6

// query Another compound to look at: Cn1cc(-c2nc3cc(C(=O)NC4CC4)ccc3c3cnc(NC4CC4)nc23)cn1
// result 5.9

----------
Tested on: BxPC3
Assay: Cell proliferation assay (Alamar Blue), BxPC3
Assay type: cell-based
Conditions: Homo sapiens, BXPC-3; BxPC3 cell line; read-out: Bx-PC3
measure: IC50

// query # query: IC50 of entry Cn1cc(-c2nc3cc(C(=O)O)ccc3c3cnccc23)cn1
// result > 10 µM

// query Another molecule to look at: NC(=O)c1ccc2c(c1)nc(-c1ccccc1)c1nc(NC3CC3)ncc12
// result 1.1 µM

// query Another molecule to look at: O=C(O)c1ccc2c(c1)nc(-c1ccccc1)c1ccncc12
// result > 10 µM

// query Another molecule to look at: COC(=O)c1ccc2c(c1)nc(-c1ccccc1)c1nc(NC3CC3)ncc12
// result 1.9 µM

// query Another molecule to look at: O=C(O)c1ccc2c(c1)nc(-c1ccsc1)c1ccncc12
// result > 10 µM

// query Another molecule to look at: COC(=O)c1ccc2c(c1)nc(-c1cnn(C)c1)c1nc(SC)ncc12
// result > 62.5 µM

----------
Please provide measured inhibition at 0.5 µM for the entries that follow.
Target: recombinant human CK2 (Homo sapiens)
Construct: purchased Upstate
Assay: Cell-free CK2 assay
Type: biochemical
Conditions: read-out: CK2: % inh 500 nM
Don't forget the unit after the number, please.

// query # query: inhibition at 0.5 µM of entry Cc1ccccc1-c1nc2ccccc2c2cnccc12
// result -15%

// query Another compound to look at: O=C(O)c1ccc2c(c1)nc(-c1ccc(Cl)cc1)c1ccncc12
// result 98%

// query Another compound to look at: Clc1cccc(-c2nc3ccccc3c3cnccc23)c1
// result -17%

// query Another compound to look at: Cn1cc(-c2nc3cc(C(N)=O)ccc3c3cnccc23)cn1
// result 7%

// query Another compound to look at: CN(C)C(=O)c1ccc2c(c1)nc(-c1cnn(C)c1)c1ccncc12
// result -13%

// query Another compound to look at: O=C(O)c1ccc2c(c1)nc(-c1ccsc1)c1ccncc12
// result 98%

----------
Target: recombinant human CK2 (Homo sapiens, UniProt P68400)
Construct: purchased Upstate
Sequence (P68400 whole entry): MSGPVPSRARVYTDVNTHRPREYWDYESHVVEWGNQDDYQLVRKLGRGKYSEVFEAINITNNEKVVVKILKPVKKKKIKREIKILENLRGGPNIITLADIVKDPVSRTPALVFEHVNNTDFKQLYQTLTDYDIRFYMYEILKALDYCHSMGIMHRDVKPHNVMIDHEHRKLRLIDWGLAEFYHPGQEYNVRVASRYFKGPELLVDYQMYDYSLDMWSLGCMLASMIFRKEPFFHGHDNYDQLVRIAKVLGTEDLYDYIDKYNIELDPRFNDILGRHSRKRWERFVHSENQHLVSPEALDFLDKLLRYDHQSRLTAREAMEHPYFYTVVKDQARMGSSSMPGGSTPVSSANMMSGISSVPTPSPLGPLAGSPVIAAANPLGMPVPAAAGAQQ
Sequence (P67870 whole entry partner): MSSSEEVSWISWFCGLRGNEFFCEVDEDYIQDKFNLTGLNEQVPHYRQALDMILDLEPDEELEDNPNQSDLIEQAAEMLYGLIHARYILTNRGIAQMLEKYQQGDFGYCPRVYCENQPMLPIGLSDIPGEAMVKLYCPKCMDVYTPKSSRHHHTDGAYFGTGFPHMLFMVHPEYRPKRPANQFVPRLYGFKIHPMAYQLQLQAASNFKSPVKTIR
Experiment: Cell-free CK2 assay
Format: biochemical
Conditions: read-out: CK2: % inh 500 nM
Please provide measured inhibition at 0.5 µM for the entries that follow.
Express it in %; write the number only.

// query # query: inhibition at 0.5 µM of entry Clc1ccc(-c2nc3ccccc3c3cnccc23)cc1
// result -5

// query Another molecule to look at: O=C(O)c1ccc2c(c1)nc(-c1ccccc1F)c1ccncc12
// result 97

// query Another molecule to look at: Fc1ccc2c(c1)nc(-c1cccc(OC(F)(F)F)c1)c1ccncc12
// result -35

// query Another molecule to look at: COC(=O)c1ccc2c(c1)nc(-c1cnn(C)c1)c1nc(SC)ncc12
// result 68

// query Another molecule to look at: NC(=O)c1ccc2c(c1)nc(-c1ccccc1)c1ccncc12
// result 27

----------
Tested on: MiaPaca human pancreatic carcinoma cells
Experiment: Cell proliferation assay (Alamar Blue), MiaPaCa
Type: cell-based
Details: MIA PaCa-2, MiaPaCa cell line
Please provide measured IC50 for the entries that follow.

// query # query: IC50 of entry Clc1ccc(-c2nc3ccccc3c3cnccc23)cc1
// result > 10 µM

// query Another compound to look at: Cc1ccccc1-c1nc2ccccc2c2cnccc12
// result > 10 µM

// query Another compound to look at: CC(=O)Nc1cccc(-c2nc3cc(C(=O)O)ccc3c3cnccc23)c1
// result > 10 µM

----------
Tested on: MV-4-11
Assay: Cell proliferation assay (Alamar Blue), MV-4-11
Format: cell-based
Conditions: Homo sapiens, MV4-11; MV-4-11 cell line
Please provide measured IC50 for the entries that follow.

// query # query: IC50 of entry O=C(O)c1ccc2c(c1)nc(-c1cccc(Cl)c1)c1ccncc12
// result > 10 µM

// query Another molecule to look at: CC(=O)Nc1cccc(-c2nc3cc(C(=O)O)ccc3c3cnccc23)c1
// result > 10 µM

// query Another molecule to look at: CN1CCCCC1CNC(=O)c1ccc2c(c1)nc(-c1cccc(N)c1)c1ccncc12 (stereo not drawn)
// result > 10 µM

----------
Please provide measured IC50 for the entries that follow.
System: MiaPaca human pancreatic carcinoma cells
Test: Cell proliferation assay (Alamar Blue), MiaPaCa
Type: cell-based
Conditions: MIA PaCa-2, MiaPaCa cell line

// query # query: IC50 of entry COC(=O)c1ccc2c(c1)nc(-c1ccccc1)c1nc(S(C)(=O)=O)ncc12
// result 5.5 µM

// query Another compound to look at: CN1CCCCC1CNC(=O)c1ccc2c(c1)nc(-c1cccc(N)c1)c1ccncc12 (stereo not shown)
// result > 10 µM

// query Another compound to look at: Cc1ccccc1-c1nc2cc(C(=O)O)ccc2c2cnccc12
// result > 10 µM

// query Another compound to look at: O=C(O)c1ccc2c(c1)nc(-c1ccc(Cl)cc1)c1ccncc12
// result > 10 µM

// query Another compound to look at: O=C(O)c1ccc2c(c1)nc(-c1cccc(Cl)c1)c1ccncc12
// result > 10 µM

// query Another compound to look at: Clc1cccc(-c2nc3ccccc3c3cnccc23)c1
// result > 10 µM

// query Another compound to look at: O=C(O)c1ccc2c(c1)nc(-c1ccccc1OC(F)(F)F)c1ccncc12
// result > 10 µM

// query Another compound to look at: O=C(O)c1ccc2c(c1)nc(-c1ccc(F)cc1)c1ccncc12
// result > 30 µM

// query Another compound to look at: Cn1cc(-c2nc3cc(C(=O)O)ccc3c3cnccc23)cn1
// result > 10 µM

// query Another compound to look at: O=C(O)c1ccc2c(c1)nc(-c1ccccc1)c1nc(NC3CC3)ncc12
// result 3.7 µM

Measured values drawn from patent US7910600B2 for this set.
